Values were extracted from patent US20220380341A1.

Target: HIV-1 NefNL4-3 (Human immunodeficiency virus type 1 group M subtype B, UniProt P03406, A33V/T15A/T51N/V11I)
Assay: Surface plasmon resonance binding to recombinant full-length Nef (NL4-3)
Settings: Table 4; SPR fit 1:1 Langmuir, KD = koff/kon; read-out: KD
assay-readout: Kd (nM)
Hi! Could you send only the number? It should be in nM, unit omitted.

Noted for O=C(COCc1ccncc1)N1CCC(Cc2nn(-c3nc4ccccc4[nH]3)c(O)c2CCc2ccc(F)cc2)CC1 : its Kd reads 798

---

Biological target: HIV-1 NefNL4-3 (Human immunodeficiency virus type 1 group M subtype B, UniProt P03406, A33V/T15A/T51N/V11I)
Experiment: Surface plasmon resonance binding to recombinant full-length Nef (NL4-3)
I'd appreciate it if you could supply Kd values for the items below.
Hi! Could you send only the number? It should be in nM, unit omitted.

Noted for CC(=O)N1CCC(c2nn(-c3nc4ccccc4[nH]3)c(O)c2CCc2ccc(F)cc2)CC1 : its Kd reads 3260

Noted for Oc1c(CCc2ccc(F)cc2)c(-c2cccnc2)nn1-c1nc2ccccc2[nH]1 : its Kd reads 0.0383

Noted for O=C(c1ccoc1)N1CCC(c2nn(-c3nc4ccccc4[nH]3)c(O)c2CCc2ccc(F)cc2)CC1 : its Kd reads 0.00489

Noted for CS(=O)(=O)c1ccc(-c2nn(-c3nc4cc(Cl)ccc4[nH]3)c(O)c2CCC2CCNCC2)cc1 : its Kd reads 282

Noted for Oc1c(CCn2cc(Cl)cn2)c(-c2ccc(C(F)(F)F)cc2)nn1-c1nc2ccccc2[nH]1 : its Kd reads 426

Noted for CC(=O)N1CCC(c2nn(-c3nc4ccc(Cl)cc4[nH]3)c(O)c2CCc2ccc(F)cc2)CC1 : its Kd reads 605

Noted for Cn1c(-n2nc(-c3cccc(S(C)(=O)=O)c3)c(CCc3ccc(F)cc3)c2O)nc2ccccc21 : its Kd reads 4390

Noted for Oc1c(CCc2ccc(F)cc2)c(-c2ccccn2)nn1-c1nc2ccccc2[nH]1 : its Kd reads 36.2

Noted for CC(C)(O)C(=O)N1CCC(Cc2nn(-c3nc4ccccc4[nH]3)c(O)c2CCc2ccc(F)cc2)CC1 : its Kd reads 997

Noted for CC(C)COC(=O)N1CCC(c2nn(-c3nc4ccccc4[nH]3)c(O)c2CCc2ccc(F)cc2)CC1 : its Kd reads 224

Noted for CS(=O)(=O)c1cccc(-c2nn(-c3nc4cccnc4[nH]3)c(O)c2CCC2CCOCC2)c1 : its Kd reads 744

Noted for Oc1c(CCC2CCOCC2)c(-c2ccc(C(F)(F)F)cc2)nn1-c1nc2ccccc2[nH]1 : its Kd reads 556

Noted for CC(C)(O)C(=O)N1CCCC1c1nn(-c2nc3ccccc3[nH]2)c(O)c1CCc1ccc(F)cc1 (centres unmarked) : its Kd reads 854

Noted for CC(C)(C)OC(=O)N1CCCCC1Cc1nn(-c2nc3ccccc3[nH]2)c(O)c1CCc1ccc(F)cc1 (centres unmarked) : its Kd reads 1.49

Noted for Oc1c(CC2CCCC2)c(-c2ccc(C(F)(F)F)cc2)nn1-c1nc2ccccc2[nH]1 : its Kd reads 88.8

Noted for CC(=O)N1CCC(c2nn(-c3nc4cc(Cl)ccc4[nH]3)c(O)c2CCC2CCOCC2)CC1 : its Kd reads 1540

Noted for O=C(OCc1ccccc1)N1CCC(c2nn(-c3nc4ccccc4[nH]3)c(O)c2Cc2ccc(F)c(F)c2)CC1 : its Kd reads 384

Noted for Oc1c(CCc2ccc(F)cc2)c(C2CCN(Cc3cccnc3)CC2)nn1-c1nc2ccccc2[nH]1 : its Kd reads 817

Noted for O=S(=O)(C1CC1)N1CCC(c2nn(-c3nc4ccccc4[nH]3)c(O)c2CCc2ccc(F)cc2)CC1 : its Kd reads 4150

Noted for CS(=O)(=O)c1ccc(-c2nn(-c3nc4ccccc4[nH]3)c(O)c2CCc2ccc(F)cc2)cc1 : its Kd reads 656

Noted for O=C(OCc1ccccc1)N1CCC(Cc2c(-c3ccc(C(F)(F)F)cc3)nn(-c3nc4ccccc4[nH]3)c2O)CC1 : its Kd reads 1.86

Noted for CS(=O)(=O)N1CCC(c2nn(-c3nc4cc(Cl)ccc4[nH]3)c(O)c2CCn2nccn2)CC1 : its Kd reads 1980

Noted for O=C1CCCN1CCc1c(-c2ccc(C(F)(F)F)cc2)nn(-c2nc3ccccc3[nH]2)c1O : its Kd reads 61.8

Noted for Oc1c(CCc2ccc(F)cc2)c(C2CCOCC2)nn1-c1nc2cccnc2[nH]1 : its Kd reads 705

Noted for Oc1c(CCc2ccc(F)cc2)c(CC2CCN(CC(F)(F)F)CC2)nn1-c1nc2ccccc2[nH]1 : its Kd reads 354

Noted for O=C(Cc1ccncc1)N1CCCC1c1nn(-c2nc3ccccc3[nH]2)c(O)c1CCc1ccc(F)cc1 (centres unmarked) : its Kd reads 780

Noted for Oc1c(CC2CCNCC2)c(-c2ccc(C(F)(F)F)cc2)nn1-c1nc2ccccc2[nH]1 : its Kd reads 10600

Noted for O=C(OCc1ccccc1)N1CCCC(c2nn(-c3nc4ccccc4[nH]3)c(O)c2CCc2ccc(F)cc2)C1 (centres unmarked) : its Kd reads 0.0063

Noted for CC[C@H](O)C(=O)N1CCC(c2nn(-c3nc4ccccc4[nH]3)c(O)c2CCc2ccc(F)cc2)CC1 : its Kd reads 26900
